# IC50 per entry
Measurement target: DNA topoisomerase 1 (Homo sapiens, UniProt P11387)
Sequence (P11387 whole entry): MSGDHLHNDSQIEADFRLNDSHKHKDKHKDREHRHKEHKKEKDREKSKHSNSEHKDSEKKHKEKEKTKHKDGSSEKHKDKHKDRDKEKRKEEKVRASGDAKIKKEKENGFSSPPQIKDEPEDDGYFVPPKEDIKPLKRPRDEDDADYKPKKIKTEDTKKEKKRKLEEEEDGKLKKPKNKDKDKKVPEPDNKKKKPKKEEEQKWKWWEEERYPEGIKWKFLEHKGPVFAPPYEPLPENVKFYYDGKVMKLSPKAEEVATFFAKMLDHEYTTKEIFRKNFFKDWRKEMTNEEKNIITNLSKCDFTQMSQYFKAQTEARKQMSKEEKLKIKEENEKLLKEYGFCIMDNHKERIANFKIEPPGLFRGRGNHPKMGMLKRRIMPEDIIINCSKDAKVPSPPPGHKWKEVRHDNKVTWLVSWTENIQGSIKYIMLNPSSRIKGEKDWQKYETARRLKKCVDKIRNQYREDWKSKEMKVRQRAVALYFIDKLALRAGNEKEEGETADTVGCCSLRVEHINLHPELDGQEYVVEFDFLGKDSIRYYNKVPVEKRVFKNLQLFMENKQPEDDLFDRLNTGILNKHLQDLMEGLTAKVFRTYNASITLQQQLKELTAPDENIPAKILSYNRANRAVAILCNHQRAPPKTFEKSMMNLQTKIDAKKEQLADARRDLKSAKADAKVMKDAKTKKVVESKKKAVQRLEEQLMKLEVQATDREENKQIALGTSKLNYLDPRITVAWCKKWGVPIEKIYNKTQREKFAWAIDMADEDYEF
Assay method text: Inhibition of Topoisomerase I by cleavage complex formation in intact human HL-60 cells
Assay type: cell-based
Kindly provide the numeric value in µM only, without the unit symbol.

Examples with answers:
The compound listed as CCC1(OC(=O)CN)C(=O)OCc2c1cc1n(c2=O)Cc2cc3cc4c(cc3nc2-1)OCO4.Cl (racemic) shows IC50 equal to 2.5

IC50 for CCC1(O)C(=O)OCc2c1cc1n(c2=O)Cc2cc3c(N)c4c(cc3nc2-1)OCO4 (racemic) is 0.069

In plain terms, CCC1(O)C(=O)OCc2c1cc1n(c2=O)Cc2cc3c(N)cccc3nc2-1 (racemic) has a documented IC50 of 0.84

Now, please, on to the next compound.
In plain terms, CCC1(OC(=O)CN)C(=O)OCc2c1cc1n(c2=O)Cc2cc3c(N)cccc3nc2-1.Cl (racemic) has a documented IC50 of 6.8
